Molecular target: histamine 3 receptor (H3R) (Homo sapiens, UniProt Q9Y5N1)
Sequence (Q9Y5N1 whole entry): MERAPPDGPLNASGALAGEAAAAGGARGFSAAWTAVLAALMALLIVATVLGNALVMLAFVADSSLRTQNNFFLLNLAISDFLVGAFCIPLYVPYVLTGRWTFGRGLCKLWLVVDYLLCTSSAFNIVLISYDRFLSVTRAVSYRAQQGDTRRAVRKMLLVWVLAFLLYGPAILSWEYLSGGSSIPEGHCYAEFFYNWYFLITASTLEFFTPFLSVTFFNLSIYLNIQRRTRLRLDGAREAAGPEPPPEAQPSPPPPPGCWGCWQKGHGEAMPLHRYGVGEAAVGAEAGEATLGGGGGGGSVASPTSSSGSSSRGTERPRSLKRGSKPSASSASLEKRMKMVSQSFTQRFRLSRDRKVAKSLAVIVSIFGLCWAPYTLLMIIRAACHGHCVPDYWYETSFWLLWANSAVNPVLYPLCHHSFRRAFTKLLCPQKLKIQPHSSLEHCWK
Ki values for the compounds below.
Report as a plain number; the unit nM is understood.

Record excerpt, results attached:
>>> print(df.to_string())
                               linenotation  assayvalue
0  O=C(c1ccc2[nH]c(C(=O)N3CCCCC3)cc2c1)N1CCN(C2CCCC2)CC1        28.7
1  CC(C)N1CCN(C(=O)c2ccc3c(c2)cc(C(=O)N2CCS(=O)(=O)CC2)n3-c2ccc(S(C)(=O)=O)cc2)CC1        22.6

Input line: Could you share what Ki was measured for CC(C)N1CCCN(C(=O)c2ccc3[nH]c(C(=O)N4CCS(=O)(=O)CC4)cc3c2)CC1 , tested on histamine 3 receptor (H3R) (Homo sapiens, UniProt Q9Y5N1)?
Output line: 41
